RECORDED_ENDPOINT: melting point (°C)

{"columns": ["MOLECULE", "UNIT_TAG", "READING"],
 "data": [
  ["O=C(O)C=CCCCCCCCCC(=O)O", "°C", 166],
  ["O=C(CC(=O)C(F)(F)F)c1ccccc1", "°C", 39],
  ["CC(=Cc1ccccc1)c1ccccc1", "°C", 82],
  ["CC1(C)C(C=C(Cl)Cl)C1C(=O)OCc1cccc(Oc2ccccc2)c1 (stereo not drawn)", "°C", 34.5],
  ["C[Si](C)(C)C#Cc1cccc(C#C[Si](C)(C)C)c1", "°C", 58],
  ["CCCCCCCCCCCCCCCC(=O)NCCO", "°C", 98.5]
]}

---

{"columns": ["MOLECULE", "melting point"],
 "data": [
  ["Cc1c(C)c(C#N)c2ccccc2c1C#N", "261 to 264 °C"],
  ["COC(=O)C1C2(C)C=CC(O2)C1(OC)OC (stereo not drawn)", "60 to 62 °C"],
  ["COc1ccc(OC)c(C(=O)CBr)c1", "83 to 88 °C"],
  ["Cc1cc(C(=O)O)ccc1O", "174 to 175 °C"],
  ["O=Cc1ccc(-c2ccc(C(F)(F)F)cc2Cl)o1", "86 to 87 °C"],
  ["COc1ccccc1N1CCN(CC(C)N(C(=O)C2CCCCC2)c2ccccn2)CC1 (stereo not drawn)", "90 to 91 °C"],
  ["O=S(=O)(O)CC(O)CN1CCOCC1 (stereo not drawn)", "273 to 274 °C"],
  ["COCc1cc(O)nc(SC)n1", "195 to 196 °C"]
]}

---

Reported melting point values for a set of compounds

{"columns": ["COMPOUND", "melting point"],
 "data": [
  ["NC(C(=O)O)(c1ccccc1)c1ccccc1", "244 to 247 °C"],
  ["OCc1ccc(Oc2ccccc2)cc1", "55 to 56 °C"],
  ["C=CCn1c2c(c3cc(OC)ccc31)CCc1cc(OC)ccc1-2", "92 to 93 °C"],
  ["COc1cc(CCC(C)=NO)ccc1O", "82 to 84 °C"],
  ["O=c1[nH]cnc2c1cnn2C1CCCCC1", "251 to 252 °C"],
  ["C=C[Si]12OCCN(CCO1)CCO2", "163 to 165 °C"],
  ["O=[N+]([O-])c1ccc2ncoc2c1", "150 to 152 °C"],
  ["O=C(CNC(=O)OCC1c2ccccc2-c2ccccc21)Oc1c(F)c(F)c(F)c(F)c1F", "159 to 160 °C"],
  ["COc1ccc(OC)c(C(C)=O)c1O", "49 to 51 °C"],
  ["CCOC(=O)C(C#N)=C(SC)Sc1ncccn1", "103 to 105 °C"],
  ["NNCc1ccccc1", "26 °C"],
  ["O=C(NC(=O)c1c(F)cccc1F)Nc1cc(Cl)c(OC(F)(F)C(F)C(F)(F)F)cc1Cl (stereo not drawn)", "169 °C"],
  ["CC(=O)N(CC(C)C(=O)O)c1c(I)cc(I)c(N)c1I (stereo not drawn)", "224 °C"],
  ["CC1(C)CC(=O)C2=C(C1)OC1CCCCC21 (stereo not drawn)", "63 to 66 °C"],
  ["Cc1cccnc1C(N)=NO", "94 to 95 °C"],
  ["COc1ccc(/C=c2\\sc3nc4ccccc4n3c2=O)cc1OC", "220 to 222 °C"],
  ["NC(=O)C(Cc1ccc([N+](=O)[O-])cc1)c1ccccc1 (stereo not drawn)", "176 °C"],
  ["CCOc1cc2c(cc1OCC)C(CC#N)NCC2 (stereo not drawn)", "99 to 102 °C"],
  ["O=C(c1c(F)c(F)c(F)c(F)c1F)n1ccnc1", "56 °C"],
  ["CCOC(=O)C1=NN(c2ccccc2)C(=O)C1CC1C(=O)N(c2ccccc2)N=C1C(=O)OCC (stereo not drawn)", "179 °C"],
  ["CC(CO)c1c(O)c(O)c2c(c1O)C(=O)C(=O)C1C2(C)CCC(O)C1(C)C (stereo not drawn)", "214 to 216 °C"],
  ["CC(=O)Nc1ccc(/N=N/c2ccc(N(Nc3ccc(NC(C)=O)cc3)C(C)=O)cc2)cc1", "218 °C"],
  ["CS(=O)(=O)c1ccc(S(=O)(=O)Cl)cc1", "160 °C"],
  ["COC(=O)c1cnc(SCC(=O)c2ccc(Cl)cc2)n1C", "126 to 127 °C"],
  ["O=Cc1cc(Cl)cc(Cl)c1Cl", "72 to 76 °C"],
  ["CCOC(=O)c1csc(-c2ccc(Br)s2)n1", "97 to 101 °C"],
  ["OCc1ccccc1Cc1ccccc1", "37 to 41 °C"],
  ["O=C(C(C(=O)N1CCCCC1)c1ccccc1)N1CCCCC1", "144 °C"],
  ["COc1ccc(C(O)(c2cncnc2)C2CC2)cc1 (stereo not drawn)", "110 °C"],
  ["BrCCOc1ccc(Br)cc1", "56 to 57 °C"],
  ["Brc1cnc2c(c1)OCCN2", "116 to 119 °C"],
  ["CCOc1cccc(-c2ccccc2)c1", "35 °C"],
  ["CC(C)c1ccc(Br)cc1", "-12 °C"],
  ["Oc1c(CN2CCCCC2)ccc2ccccc12", "134 to 136 °C"],
  ["O=[N+]([O-])c1ccc(-c2nnc3n2NCS3)cc1", "218 °C"],
  ["CCOc1ccc(-c2nnc3n2NC(c2ccc(Cl)cc2)S3)cc1 (stereo not drawn)", "109 °C"],
  ["CC(=O)NCO", "55 to 56 °C"],
  ["Cn1nc(CCl)cc1-c1ccco1", "72 to 73 °C"]
]}
